So I've got a bunch of compounds here, and I need their pKi values.
target: human recombinant SERT (Homo sapiens, UniProt P31645); construct: membranes); assay: SERT radioligand binding assay (scintillation proximity, [3H]citalopram); conditions: HEK293 cell membranes expressing human recombinant SERT; [3H]citalopram; SPA; read-out: SERT Ki
Sequence (P31645 whole entry): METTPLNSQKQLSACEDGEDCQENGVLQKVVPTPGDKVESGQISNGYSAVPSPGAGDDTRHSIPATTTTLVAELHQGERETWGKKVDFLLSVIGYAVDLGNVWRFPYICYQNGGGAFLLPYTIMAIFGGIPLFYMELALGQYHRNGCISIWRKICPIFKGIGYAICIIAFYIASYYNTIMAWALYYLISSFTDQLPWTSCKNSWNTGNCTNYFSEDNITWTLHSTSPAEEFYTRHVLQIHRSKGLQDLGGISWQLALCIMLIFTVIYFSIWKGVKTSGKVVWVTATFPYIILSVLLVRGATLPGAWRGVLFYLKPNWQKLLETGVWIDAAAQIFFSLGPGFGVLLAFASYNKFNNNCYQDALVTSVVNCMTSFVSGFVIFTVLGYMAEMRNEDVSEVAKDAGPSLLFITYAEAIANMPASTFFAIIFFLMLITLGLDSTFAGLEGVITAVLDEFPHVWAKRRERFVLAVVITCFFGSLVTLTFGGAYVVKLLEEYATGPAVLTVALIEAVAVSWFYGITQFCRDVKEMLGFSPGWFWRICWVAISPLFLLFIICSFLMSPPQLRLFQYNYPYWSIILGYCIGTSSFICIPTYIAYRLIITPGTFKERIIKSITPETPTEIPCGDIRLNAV
pKi: −log10 of the molar value.

// input: 5 compounds below; output: pKi for each
1. CCN(CC)CC(O)C1(c2ccc(Cl)c(Cl)c2)CCC1 (centres unmarked) [Compound 18]
2. OC(CN1CCC(F)(F)CC1)C1(c2ccc(Cl)c(Cl)c2)CCC1 (centres unmarked) [Compound 24]
3. OC(CN1CCCCC1)C1(c2ccc(Cl)c(Cl)c2)CCCC1 (centres unmarked) [Compound 60]
4. c1ccc(C2(CN3CCCCC3)CCC2)cc1 [Compound 4]
5. COC1CCCN(CC(O)C2(c3ccc(Cl)c(Cl)c3)CCC2)C1 (centres unmarked) [Compound 33]

["< 6.30", "6.30 to 7.00", "6.30 to 7.00", "< 6.30", "< 6.30"]

====

molecular target: human recombinant SERT (Homo sapiens); construct: membranes); experiment: SERT radioligand binding assay (scintillation proximity, [3H]citalopram); conditions: HEK293 cell membranes expressing human recombinant SERT; [3H]citalopram; SPA; read-out: SERT Ki
REPORTED_PROPERTY: Ki

>>> result("CC1(C)COCCN1CC(O)C1(c2ccc(Cl)c(Cl)c2)CCC1 (centres unmarked)")
"11 to 100 nM"
>>> result("OC(CN1CCCCC1)C1(c2ccc(Cl)cc2)CCC1 (centres unmarked)")
"> 500 nM"
>>> result("O=C(CN1CCCCC1)C1(c2cccc(Cl)c2)CCC1")
"> 500 nM"
>>> result("Clc1ccc(C2(CN3CCCCC3)CCC2)cc1Cl")
"101 to 500 nM"

// input: 6 molecules below; output: Ki for each
1. CC(O)(CN1CCCCC1)C1(c2ccc(Cl)c(Cl)c2)CCC1 (centres unmarked)
2. OC(CN1CC2CCC1C2)C1(c2ccc(Cl)c(Cl)c2)CCC1 (centres unmarked)
3. CC1(NCC(O)C2(c3ccc(Cl)c(Cl)c3)CCC2)CCC1 (centres unmarked)
4. OC(CNC1CC1)C1(c2ccc(Cl)c(Cl)c2)CCC1 (centres unmarked)
5. OC(CN1CCCC(F)(F)C1)C1(c2ccc(Cl)c(Cl)c2)CCC1 (centres unmarked)
6. OC(CN1CC2CC1CO2)C1(c2ccc(Cl)c(Cl)c2)CCC1 (centres unmarked)

["> 500 nM", "101 to 500 nM", "101 to 500 nM", "> 500 nM", "> 500 nM", "> 500 nM"]

// input: 6 molecules below; output: Ki for each
1. O[C@@H](CN1CCCCC1)C1(c2ccc(Cl)c(Cl)c2)CCC1
2. OC(CN1CCCC1)C1(c2ccc(Cl)c(Cl)c2)CCC1 (centres unmarked)
3. CC(F)C(C)NCC(O)C1(c2ccc(Cl)c(Cl)c2)CCC1 (centres unmarked)
4. CC(CF)NCC(O)C1(c2ccc(Cl)c(Cl)c2)CCC1 (centres unmarked)
5. N#CC1CCCN(CC(O)C2(c3ccc(Cl)c(Cl)c3)CCC2)C1 (centres unmarked)
6. OC(CN1CCOCC1)C1(c2ccc(Cl)c(Cl)c2)CCC1 (centres unmarked)

> 500 nM
> 500 nM
101 to 500 nM
> 500 nM
11 to 100 nM
> 500 nM

// input: 4 molecules below; output: Ki for each
1. OC(CN1CCCCCC1)C1(c2ccc(Cl)c(Cl)c2)CCC1 (centres unmarked)
2. Clc1ccc(C2(CN3CCCCC3)CCC2)cc1
3. COC(CN1CCCCC1)C1(c2ccc(Cl)c(Cl)c2)CCC1 (centres unmarked)
4. OC(CN1CCCCC1)C1(c2ccc3ccccc3c2)CCC1 (centres unmarked)

["> 500 nM", "> 500 nM", "> 500 nM", "101 to 500 nM"]
